System: HeLa cells
Run Description: Cell cycle assay in HeLa cells
Format: cell-based, human
Particulars: HeLa cells, 150 nM oligomeric compound, 48 hours after treatment; relative to untreated control (UTC=100)
In the oligonucleotide strings, read from the 5' end, every base follows the letter of its sugar. An asterisk marks phosphorothioate; unmarked linkages are phosphodiester. Other units and linkages are bracketed, terminal groups are in braces. A string of capitals states the bases alone. e = 2'-O-(2-methoxyethyl) (MOE); [5mC] = 5-methylcytosine; d = 2'-deoxy (DNA)
Rule: % cells in cell cycle phase: aneuploid below 80% gives t. Equal to or above 80% gives f.

Recorded results for 3 substances are shown here.
{"Substance": "328115 (antisense eA*eG*eA*eA*eG*eG*eT*eG*eG*eG*eG*eA*eG*e[5mC]*eA*eG*e[5mC]*eG*eT*e[5mC]*eA) [compound 328115]", "Category Label": "f"}
{"Substance": "327956 (antisense e[5mC]*eA*e[5mC]*eA*eG*eT*eT*eG*e[5mC]*e[5mC]*eA*eG*e[5mC]*eT*eG*eA*eG*eA*eT*eT*eA) [compound 327956]", "Category Label": "f"}
{"Substance": "328374 (eA*eG*e[5mC]*eT*eT*dT*dA*dG*d[5mC]*dT*dG*dG*dG*dT*d[5mC]*eA*eG*eG*eA*e[5mC]; antisense) [compound 328374]", "Category Label": "t"}

Let us examine a further case.
Here's an entry: 327957 (antisense e[5mC]*eA*e[5mC]*eA*eA*eG*eT*eT*e[5mC]*eG*eG*eA*eT*e[5mC]*eT*eA*e[5mC]*eG*eG*eG*eT*eT) [compound 327957] . Is its % cells in cell cycle phase: aneuploid below 80%?
f
